Assay type: in vivo, NSCLC patients
EXPERIMENTAL_CONDITIONS: human, plasma, oral, Cmax (CV %), geomean, PPI [n = 9], patients in both study arms, corrected for coadministration with milk
VALUE_KIND: Cmax (ng/mL)
Provide only the numeric value, understood in ng/mL.

Record summary for C#Cc1cccc(Nc2ncnc3cc(OCCOC)c(OCCOC)cc23)c1 [erlotinib] : reported Cmax = 750

----------
Format: in vivo, NSCLC patients
EXPERIMENTAL_CONDITIONS: human, plasma, po
VALUE_KIND: Tmax (h)
Number only, in h; omit the unit.

Noted for C#Cc1cccc(Nc2ncnc3cc(OCCOC)c(OCCOC)cc23)c1 : its Tmax reads 2.52

----------
Format: in vivo, NSCLC patients
EXPERIMENTAL_CONDITIONS: human, plasma, oral, Cmax (CV %), geomean, PPI with milk [n = 15]
VALUE_KIND: Cmax (ng/mL)
Answer format: numeric, ng/mL implied, no suffix.

The molecule C#Cc1cccc(Nc2ncnc3cc(OCCOC)c(OCCOC)cc23)c1 [erlotinib] showed Cmax equal to 820

----------
Format: in vivo, NSCLC patients
EXPERIMENTAL_CONDITIONS: human, plasma, po, Cmax (CV %), geomean, No PPI with water [n = 14]
VALUE_KIND: Cmax (ng/mL)
The reply should contain only the number, in ng/mL.

Cmax for C#Cc1cccc(Nc2ncnc3cc(OCCOC)c(OCCOC)cc23)c1 [erlotinib] is 1850

----------
Format: in vivo, NSCLC patients
EXPERIMENTAL_CONDITIONS: human, plasma, po, AUC24 (CV%), geomean, No PPI with water [n = 14]
VALUE_KIND: AUC (ng·h/mL)
Lab book: enter the figure in ng·h/mL, no units written.

Record C#Cc1cccc(Nc2ncnc3cc(OCCOC)c(OCCOC)cc23)c1 [erlotinib] , field AUC: 23000

----------
Type: in vivo, NSCLC patients
EXPERIMENTAL_CONDITIONS: human, plasma, po, Cmax (CV %), geomean, PPI with water [n = 15]
VALUE_KIND: Cmax (ng/mL)
Give the quantity in ng/mL, number only.

Cmax in this record for C#Cc1cccc(Nc2ncnc3cc(OCCOC)c(OCCOC)cc23)c1 : 810

----------
Assay type: in vivo, NSCLC patients
EXPERIMENTAL_CONDITIONS: human, plasma, oral, AUC24 (CV%), geomean, No PPI with milk [n = 14]
VALUE_KIND: AUC (ng·h/mL)
Just the number in ng·h/mL, nothing appended.

AUC recorded for this compound, C#Cc1cccc(Nc2ncnc3cc(OCCOC)c(OCCOC)cc23)c1 , is 22400
